Tested on: Escherichia coli
experiment_description: Antibacterial activity against Escherichia coli INSRA5924 isolates expressing CTX-M-32 and TEM-1B enzymes by agar dilution method
Assay type: functional
Recorded MIC for the following compounds
Give just the numeric value; µg/mL need not be written.

// known answers, use as guide
CC1(C)S[C@@H]2[C@H](/N=C\N3CCCCCC3)C(=O)N2[C@H]1C(=O)O :: 2
CO/N=C(\C(=O)N[C@@H]1C(=O)N2C(C(=O)[O-])=C(C[N+]3(C)CCCC3)CS[C@H]12)c1csc(N)n1 :: 16

Pending compound:
In: Consider the compound CO/N=C(\C(=O)N[C@@H]1C(=O)N2C(C(=O)O)=C(CSc3nc(=O)c(O)nn3C)CS[C@H]12)c1csc(N)n1 (stereo in doubt) and give its recorded MIC.
Out: 256
